Target or system Epoxide hydrolase 1 (Homo sapiens, UniProt P07099); metric pIC50; compiled from varied reports.
Molecular target: Epoxide hydrolase 1 (Homo sapiens, UniProt P07099)
Sequence (P07099 whole entry): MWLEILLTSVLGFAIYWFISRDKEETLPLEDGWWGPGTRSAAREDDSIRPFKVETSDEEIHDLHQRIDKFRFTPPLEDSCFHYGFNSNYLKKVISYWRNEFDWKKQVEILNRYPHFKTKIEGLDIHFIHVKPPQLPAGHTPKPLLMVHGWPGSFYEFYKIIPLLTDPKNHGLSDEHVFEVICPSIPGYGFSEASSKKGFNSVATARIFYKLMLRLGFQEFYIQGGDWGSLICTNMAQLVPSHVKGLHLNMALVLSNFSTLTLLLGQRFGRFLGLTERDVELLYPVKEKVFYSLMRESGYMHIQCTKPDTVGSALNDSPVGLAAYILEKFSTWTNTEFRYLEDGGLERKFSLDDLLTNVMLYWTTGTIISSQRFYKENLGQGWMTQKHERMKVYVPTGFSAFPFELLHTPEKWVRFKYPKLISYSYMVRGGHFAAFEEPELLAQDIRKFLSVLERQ
pIC50: −log10 of the molar value.
Measured quantity: pIC50

CC1(c2ccccc2)CCCN(C(=O)NCc2ccc(-c3ccc4[nH]ccc4c3)cc2)C1 (configuration not stated) :: 4.85
CC(=O)NC(=S)NC12CC3CC(CC(C3)C1)C2 :: 5.95
O=C(NC(=S)Nc1ccc(Oc2ccccc2)cc1)c1ccccc1 :: 5.68
CC(=O)NC(=S)Nc1ccc(Oc2ccccc2)cc1 :: 5.43
CC(=O)NC(=S)Nc1ccc(Br)cc1 :: 5.79

1 = CC1(c2ccccc2)CCCN(C(=O)NCCc2ccc(Cl)cc2)C1 (configuration not stated)
2 = O=C1CC2(CCN(C(=O)NC3CCc4ccccc4C3)CC2)Oc2ccccc21 (racemic)
For this pair, 1 and 2 , which shows a numerically higher pIC50? Indicate which entry you chose by stating its label.
2

I = CS(=O)(=O)c1ccc2c(c1)CCC1(CCN(C(=O)N[C@H]3C[C@@H]3c3ccccc3)CC1)O2
II = COc1cc(C)ccc1NC(=S)NC(=O)c1ccccc1
For this pair, I and II , which shows a numerically higher pIC50? Indicate which entry you chose by stating its label.
II
(II: 5.60, I: 4.62)
